MEASURED_TARGET: UniProtKB P56817
TEST_DETAILS: Biochemical assay, automated (CyclOps), BACE1
RUN_PARAMETERS: automated CyclOps bioassay
MEASURED_PROPERTY: AUTOMATED ASSAY BACE1 pIC50

{"MOL": "COc1ncc(-c2ccccc2C)c2c1C[C@]1(c3cc(OCC4CCC4)ccc3F)N=C(N)SC[C@@H]1C2", "AUTOMATED ASSAY BACE1 pIC50": 8.4}
{"MOL": "COc1ncc(-c2coc3ccccc23)c2c1C[C@]1(c3ccc(F)cc3F)N=C(N)SC[C@@H]1C2", "AUTOMATED ASSAY BACE1 pIC50": 7.4}
{"MOL": "COc1cc(C)c(-c2cnc(OC)c3c2C[C@H]2CSC(N)=N[C@@]2(c2cc(OCC4CCOCC4)ccc2F)C3)cn1", "AUTOMATED ASSAY BACE1 pIC50": 7.52}
{"MOL": "COc1ncc(-c2c(C)noc2C)c2c1C[C@]1(c3cc(OCc4cccc(C#N)c4)ccc3F)N=C(N)SC[C@@H]1C2", "AUTOMATED ASSAY BACE1 pIC50": 7.7}

###

MEASURED_TARGET: β-secretase I (BACE1) (Homo sapiens, UniProt P56817)
Sequence (P56817 46-501): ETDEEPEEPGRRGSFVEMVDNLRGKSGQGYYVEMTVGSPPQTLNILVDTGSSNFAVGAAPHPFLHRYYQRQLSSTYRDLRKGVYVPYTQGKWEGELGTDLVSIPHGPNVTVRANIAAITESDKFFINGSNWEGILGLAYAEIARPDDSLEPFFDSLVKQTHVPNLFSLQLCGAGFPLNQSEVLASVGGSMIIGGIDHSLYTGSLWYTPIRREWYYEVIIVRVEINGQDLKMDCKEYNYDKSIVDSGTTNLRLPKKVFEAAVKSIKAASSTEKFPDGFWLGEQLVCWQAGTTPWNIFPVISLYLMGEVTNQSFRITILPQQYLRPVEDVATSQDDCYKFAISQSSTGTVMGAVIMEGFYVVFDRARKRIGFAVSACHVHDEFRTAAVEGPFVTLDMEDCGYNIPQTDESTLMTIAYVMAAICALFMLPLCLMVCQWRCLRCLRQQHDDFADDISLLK
TEST_DETAILS: Biochemical assay, automated (CyclOps), BACE1
RUN_PARAMETERS: automated CyclOps bioassay
MEASURED_PROPERTY: AUTOMATED ASSAY BACE1 pIC50

Past entries and their recorded results:
{"COMPOUND": "COc1ncc(-c2ccccc2F)c2c1C[C@]1(c3cc(OCCC#N)ccc3F)N=C(N)SC[C@@H]1C2 [Compound 156]", "AUTOMATED ASSAY BACE1 pIC50": 6.32}
{"COMPOUND": "COc1ccc(OC)c(-c2cnc(OC)c3c2C[C@H]2CSC(N)=N[C@@]2(c2cc(OCc4ccccc4F)ccc2F)C3)c1 [Compound 139]", "AUTOMATED ASSAY BACE1 pIC50": 5.55}
{"COMPOUND": "COc1ncc(-c2ccccc2)c2c1C[C@]1(c3cc(OCc4ccc(F)cc4)ccc3F)N=C(N)SC[C@@H]1C2 [Compound 154]", "AUTOMATED ASSAY BACE1 pIC50": 7.51}
{"COMPOUND": "COc1ncc(/C=C/c2ccc(F)cc2)c2c1C[C@]1(c3ccc(F)cc3F)N=C(N)SC[C@@H]1C2 [Compound 48]", "AUTOMATED ASSAY BACE1 pIC50": 7.76}
{"COMPOUND": "COc1ncc(-c2c(C)noc2C)c2c1C[C@]1(c3cc(OCCC4CCCCC4)ccc3F)N=C(N)SC[C@@H]1C2 [Compound 149]", "AUTOMATED ASSAY BACE1 pIC50": 5.09}
{"COMPOUND": "COc1ncc(-c2ccccc2F)c2c1C[C@]1(c3ccc(F)cc3F)N=C(N)SC[C@@H]1C2 [Compound 50]", "AUTOMATED ASSAY BACE1 pIC50": 8.28}
{"COMPOUND": "COc1ncc(-c2ccccc2C)c2c1C[C@]1(c3ccc(F)cc3F)N=C(N)SC[C@@H]1C2 [Compound 55]", "AUTOMATED ASSAY BACE1 pIC50": 7.77}
{"COMPOUND": "COc1cccc(COc2ccc(F)c([C@]34Cc5c(OC)ncc(-c6c(C)noc6C)c5C[C@H]3CSC(N)=N4)c2)c1 [Compound 145]", "AUTOMATED ASSAY BACE1 pIC50": 6.89}
{"COMPOUND": "COc1ncc(-c2ccc(F)cc2C)c2c1C[C@]1(c3ccc(F)cc3F)N=C(N)SC[C@@H]1C2 [Compound 58]", "AUTOMATED ASSAY BACE1 pIC50": 7.77}
{"COMPOUND": "COc1ncc(-c2ccccc2C)c2c1C[C@]1(c3cc(OCCc4c(C)noc4C)ccc3F)N=C(N)SC[C@@H]1C2 [Compound 144]", "AUTOMATED ASSAY BACE1 pIC50": 7.42}

I: COc1ncc(-c2csc3ccccc23)c2c1C[C@]1(c3ccc(F)cc3F)N=C(N)SC[C@@H]1C2 [Compound 133]
II: COc1ncc(-c2c(C)noc2C)c2c1C[C@]1(c3cc(OCCOC4CCCCC4)ccc3F)N=C(N)SC[C@@H]1C2 [Compound 148]
q: Looking only at measured AUTOMATED ASSAY BACE1 pIC50, which entry is lower, I or II ? Identify your selection by its label.
a: II
(II: 6, I: 8.6)

###

Tested on: Abeta 1-42 produced and secreted by SKNBE2 cells expressing hAPP695
TEST_DETAILS: Cellular αLisa assay in SKNBE2 cells, Abeta 1-42
Assay type: cell-based, human
RUN_PARAMETERS: SKNBE2 cells expressing hAPP695, 18 hours incubation
Items are presented alongside their recorded CELLULAR αLISA ASSAY IN SKNBE2 CELLS ABETA 42 PIC50.
I'd appreciate a reply containing only the number, no unit.

{"MOLECULE": "COc1ncc(-c2cnccc2C)c2c1C[C@@]1(c3cc(-c4cncnc4)ccc3F)N=C(N)SC[C@H]1C2 [Compound 193]", "NUMBER": 6.01}
{"MOLECULE": "COc1ncc(-c2cnccc2C)c2c1CC1(c3ccc(Cl)cc3F)N=C(N)SCC1C2 (single isomer, unassigned) [Compound 201]", "NUMBER": 5.64}
{"MOLECULE": "COc1ncc(Br)c2c1C[C@]1(c3cc(Oc4ccccn4)ccc3F)N=C(N)SC[C@@H]1C2 [Compound 137]", "NUMBER": 7.74}

--- query ---
q: Lab note: need CELLULAR αLISA ASSAY IN SKNBE2 CELLS ABETA 42 PIC50 with Abeta 1-42 produced and secreted by SKNBE2 cells expressing hAPP695 for entry COc1ncc(C2=CCOCC2)c2c1C[C@]1(c3ccc(F)cc3F)N=C(N)SC[C@@H]1C2 [Compound 46] , please look it up.
a: 9.21

###

MEASURED_TARGET: BACE1 (Homo sapiens)
Construct: recombinant BACE1 protein in a final concentration of 0.04 μg/ml
Sequence (P56817 46-501): as the sequence (P56817 46-501) above
TEST_DETAILS: BACE1 biochemical FRET based assay
RUN_PARAMETERS: recombinant BACE1 0.04 μg/ml, 20 μM substrate, 450 min, pH 5.0; read-out: BIOCHEMICAL FRET BASED ASSAY pIC50 (converted)
MEASURED_PROPERTY: IC50 (nM)

# annotated cases, reported IC50 shown
{"MOLECULE": "COc1cc(C)c(-c2cnc(OC)c3c2C[C@H]2CSC(N)=N[C@@]2(c2ccc(F)cc2F)C3)cn1", "UNIT_SYMBOL": "nM", "IC50": 8.71}
{"MOLECULE": "COc1ncc(-c2cnccc2C)c2c1CC1(c3cc(O)ccc3F)N=C(N)SCC1C2 (racemic)", "UNIT_SYMBOL": "nM", "IC50": 25.1}
{"MOLECULE": "COc1nccc2c1C[C@]1(c3cc(OCC4CC4)ccc3F)N=C(N)SC[C@@H]1C2", "UNIT_SYMBOL": "nM", "IC50": 14.8}

1: Cn1ccc2c(c1=O)C[C@]1(c3ccccc3F)N=C(N)SC[C@@H]1C2 (racemic)
2: COc1ncc(-c2cnccc2C)c2c1C[C@]1(c3cc(-c4cncnc4)ccc3F)N=C(N)SC[C@@H]1C2 (racemic)
3: COc1ncc(Br)c2c1C[C@]1(c3cc(O)ccc3F)N=C(N)SC[C@@H]1C2
q: Your job: order these 3 records by IC50, ascending. List the labels according to the requested ordering.
a: 2, 3, 1
(2: 11.7 nM, 3: 27.5 nM, 1: 6030 nM)

###

MEASURED_TARGET: β-secretase II (BACE2) (Homo sapiens, UniProt Q9Y5Z0)
Sequence (Q9Y5Z0 63-518): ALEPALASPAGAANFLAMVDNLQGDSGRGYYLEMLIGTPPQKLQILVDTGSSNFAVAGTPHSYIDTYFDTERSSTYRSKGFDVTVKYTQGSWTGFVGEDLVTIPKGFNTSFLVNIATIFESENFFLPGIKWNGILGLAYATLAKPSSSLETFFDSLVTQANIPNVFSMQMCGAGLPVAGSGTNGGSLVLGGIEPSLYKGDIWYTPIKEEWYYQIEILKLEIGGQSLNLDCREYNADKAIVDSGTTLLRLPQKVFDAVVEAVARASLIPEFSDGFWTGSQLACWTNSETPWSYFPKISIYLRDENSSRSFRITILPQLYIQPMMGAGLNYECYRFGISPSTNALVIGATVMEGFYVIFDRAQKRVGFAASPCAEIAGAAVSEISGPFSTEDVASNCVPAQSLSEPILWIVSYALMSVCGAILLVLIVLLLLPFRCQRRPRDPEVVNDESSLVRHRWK
TEST_DETAILS: Biochemical assay, automated (CyclOps), BACE2
RUN_PARAMETERS: automated CyclOps bioassay
MEASURED_PROPERTY: AUTOMATED ASSAY BACE2 pIC50

{"MOL": "COc1cccc(COc2ccc(F)c([C@]34Cc5c(OC)ncc(-c6c(C)noc6C)c5C[C@H]3CSC(N)=N4)c2)c1", "AUTOMATED ASSAY BACE2 pIC50": 5.52}
{"MOL": "COc1ncc(-c2coc3ccccc23)c2c1C[C@]1(c3ccc(F)cc3F)N=C(N)SC[C@@H]1C2", "AUTOMATED ASSAY BACE2 pIC50": 7.03}
{"MOL": "COc1ncc(-c2ccccc2F)c2c1C[C@]1(c3cc(OCCC#N)ccc3F)N=C(N)SC[C@@H]1C2", "AUTOMATED ASSAY BACE2 pIC50": 6.36}
{"MOL": "COc1ncc(-c2ccccc2F)c2c1C[C@]1(c3ccc(F)cc3F)N=C(N)SC[C@@H]1C2", "AUTOMATED ASSAY BACE2 pIC50": 7.96}
{"MOL": "COc1ncc(-c2cccc(C)c2C)c2c1C[C@]1(c3ccc(F)cc3F)N=C(N)SC[C@@H]1C2", "AUTOMATED ASSAY BACE2 pIC50": 7.63}
{"MOL": "COc1ncc(-c2ccccc2)c2c1C[C@]1(c3cc(OCc4ccc(F)cc4)ccc3F)N=C(N)SC[C@@H]1C2", "AUTOMATED ASSAY BACE2 pIC50": 7.88}
{"MOL": "COc1ncc(-c2c(C)noc2C)c2c1C[C@]1(c3cc(OCCC4CCCCC4)ccc3F)N=C(N)SC[C@@H]1C2", "AUTOMATED ASSAY BACE2 pIC50": 5.17}
{"MOL": "COc1ncc(-c2ccccc2C)c2c1C[C@]1(c3cc(OCCc4c(C)noc4C)ccc3F)N=C(N)SC[C@@H]1C2", "AUTOMATED ASSAY BACE2 pIC50": 6.43}
